Test system: NCI-H1944
Test: Antiproliferative activity against SMARCA4-deficient human NCI-H1944 cells assessed as cell growth inhibition by measuring maximal efficacy measured after 7 days by WST-8 assay relative to control
Assay type: functional
Details: time 7 day

{"Molecule smiles": "Cc1ncsc1-c1ccc([C@H](C)NC(=O)[C@@H]2C[C@@H](O)CN2C(=O)[C@@H](NC(=O)CCCCCCCCCn2cc(-c3cc(-c4ccccc4O)nnc3N)cn2)C(C)(C)C)cc1", "Quantity unit": "%", "Imax": 87}
{"Molecule smiles": "Cc1ncsc1-c1ccc([C@H](C)NC(=O)[C@@H]2C[C@@H](O)CN2C(=O)[C@@H](NC(=O)[C@H]2CC[C@H](CN3CC4(CCC(n5cc(-c6cc(-c7ccccc7O)nnc6N)cn5)CC4)C3)CC2)C(C)(C)C)cc1", "Quantity unit": "%", "Imax": 88}
{"Molecule smiles": "Cc1ncsc1-c1ccc([C@H](C)NC(=O)[C@@H]2C[C@@H](O)CN2C(=O)[C@@H](c2cc(N3CCC(CN4CCC(O[C@H]5C[C@H](Oc6cccc(CN7C8CCC7CN(c7cc(-c9ccccc9O)nnc7N)C8)c6)C5)CC4)CC3)no2)C(C)C)cc1", "Quantity unit": "%", "Imax": 87}
{"Molecule smiles": "Cc1ncsc1-c1ccc([C@H](CC[C@H](C)CCN2CCC(c3ccc4c(c3)n(C3CCCC3)c3nc(=O)c5c(Br)cccc5n43)CC2)NC(=O)[C@@H]2C[C@@H](O)CN2C(=O)[C@@H](NC(=O)C2(F)CC2)C(C)(C)C)cc1", "Quantity unit": "%", "Imax": 82}
